Assay: Growth inhibition of human MiaPaCa cells after 48 hrs by SRB assay
Type: functional
Conditions: MIA PaCa-2, 48 h
Entries and their GI50
Endpoint Label: GI50

Structure Notation: O=C(N/N=C\c1ccc(F)cc1)C1=C(Cl)c2ccccc2CCC1
Endpoint Label: GI50
Value Observed: < 0.01 µM

Structure Notation: COc1cc(C(=O)N/N=C/C2=C(Cl)c3cc(C)c(C)cc3CCC2)cc(OC)c1OC
Endpoint Label: GI50
Value Observed: 2.3 µM

Structure Notation: O=C(N/N=C/C1=C(Cl)c2ccccc2CCC1)c1cccnc1
Endpoint Label: GI50
Value Observed: 11.7 µM

Structure Notation: Cc1ccc(/C=N\NC(=O)C2=C(Cl)c3ccccc3CCC2)cc1
Endpoint Label: GI50
Value Observed: < 0.01 µM

Structure Notation: COc1cc(C(=O)N/N=C/C2=C(Cl)c3ccccc3CCC2)cc(OC)c1OC
Endpoint Label: GI50
Value Observed: 69.3 µM

Structure Notation: Cc1ccc(C(=O)N/N=C/C2=C(Cl)c3cc(C)c(C)cc3CCC2)cc1
Endpoint Label: GI50
Value Observed: 28.8 µM

Structure Notation: O=C(N/N=C/C1=C(Cl)c2ccccc2CCC1)c1cccc2ccccc12
Endpoint Label: GI50
Value Observed: 13.6 µM

Structure Notation: Nc1ccccc1C(=O)N/N=C/C1=C(Cl)c2ccccc2CCC1
Endpoint Label: GI50
Value Observed: 65.1 µM

Structure Notation: Cc1cc2c(cc1C)C(Cl)=C(/C=N/NC(=O)c1cccc(C(F)(F)F)c1)CCC2
Endpoint Label: GI50
Value Observed: 12.2 µM

Structure Notation: Cc1cc2c(cc1C)C(Cl)=C(C(=O)N/N=C\c1ccc(Cl)cc1)CCC2
Endpoint Label: GI50
Value Observed: 0.44 µM

Structure Notation: COc1cccc(/C=N\NC(=O)C2=C(Cl)c3ccccc3CCC2)c1
Endpoint Label: GI50
Value Observed: < 0.01 µM

Structure Notation: Cc1cc2c(cc1C)C(Cl)=C(C(=O)N/N=C\c1ccc(F)cc1)CCC2
Endpoint Label: GI50
Value Observed: 0.36 µM

Structure Notation: O=C(N/N=C/C1=C(Cl)c2ccccc2CCC1)c1ccc([N+](=O)[O-])cc1
Endpoint Label: GI50
Value Observed: 2.3 µM

Structure Notation: Cc1cc2c(cc1C)C(Cl)=C(C(=O)N/N=C\C1=C(Cl)c3ccccc3CCC1)CCC2
Endpoint Label: GI50
Value Observed: 6 µM

Structure Notation: O=C(N/N=C/C1=C(Cl)c2ccccc2CCC1)c1cccc(I)c1
Endpoint Label: GI50
Value Observed: 1.6 µM

---

Assay: Growth inhibition of human MiaPaCa cells after 48 hrs by SRB assay
Assay type: functional
Conditions: MIA PaCa-2, 48 h

Structure Notation: Cc1cc2c(cc1C)C(Cl)=C(/C=N/NC(=O)c1ccccc1)CCC2
Censoring Qualifier: >
GI50, nM: 100000

Structure Notation: O=C(N/N=C/C1=C(Cl)c2ccccc2CCC1)c1ccccc1
Censoring Qualifier: =
GI50, nM: 1000

Structure Notation: O=C(N/N=C\c1ccc(Cl)cc1)C1=C(Cl)c2ccccc2CCC1
Censoring Qualifier: <
GI50, nM: 10

Structure Notation: O=C(N/N=C\C1=C(Cl)c2ccccc2CCC1)C1=C(Cl)c2ccccc2CCC1
Censoring Qualifier: =
GI50, nM: 1600

Structure Notation: O=C(N/N=C/C1=C(Cl)c2ccccc2CCC1)c1cccc(Cl)c1
Censoring Qualifier: =
GI50, nM: 78400

Structure Notation: Cc1cc2c(cc1C)C(Cl)=C(/C=N/NC(=O)c1cccc3ccccc13)CCC2
Censoring Qualifier: =
GI50, nM: 4600

Structure Notation: COc1cccc(C(=O)N/N=C/C2=C(Cl)c3cc(C)c(C)cc3CCC2)c1C
Censoring Qualifier: =
GI50, nM: 2000

Structure Notation: Cc1cc2c(cc1C)C(Cl)=C(/C=N\NC(=O)C1=C(Cl)c3ccccc3CCC1)CCC2
Censoring Qualifier: =
GI50, nM: 210

Structure Notation: Cc1cc2c(cc1C)C(Cl)=C(/C=N\NC(=O)C1=C(Cl)c3cc(C)c(C)cc3CCC1)CCC2
Censoring Qualifier: =
GI50, nM: 6000

Structure Notation: COc1cc(/C=N\NC(=O)C2=C(Cl)c3ccccc3CCC2)cc(OC)c1OC
Censoring Qualifier: =
GI50, nM: 1400

Structure Notation: Cc1cc2c(cc1C)C(Cl)=C(/C=N/NC(=O)c1ccccc1N)CCC2
Censoring Qualifier: =
GI50, nM: 810

The values you see were collected from ChEMBL document CHEMBL3352636.
